Target: Renin (Homo sapiens)
Sequence (P00797 whole entry): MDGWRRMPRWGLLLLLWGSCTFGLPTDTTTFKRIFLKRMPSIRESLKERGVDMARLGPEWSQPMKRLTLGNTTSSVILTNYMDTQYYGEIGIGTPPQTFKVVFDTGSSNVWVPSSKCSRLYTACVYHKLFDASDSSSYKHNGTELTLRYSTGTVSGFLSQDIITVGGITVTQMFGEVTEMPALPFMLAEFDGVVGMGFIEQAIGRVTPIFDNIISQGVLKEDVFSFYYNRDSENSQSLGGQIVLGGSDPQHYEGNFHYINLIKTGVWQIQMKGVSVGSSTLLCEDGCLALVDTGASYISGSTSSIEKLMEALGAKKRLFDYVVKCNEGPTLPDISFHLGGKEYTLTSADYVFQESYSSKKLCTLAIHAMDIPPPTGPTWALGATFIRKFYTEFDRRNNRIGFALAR
Assay: Inhibition of human plasma renin
Where a SMILES comes first, the peptide text is derived from it. [ ]: non-standard residue; d: D form. The star is where a group is joined. Sta = CC(C)C[C@H](N)[C@@H](O)CC(=O)O; Nle = CCCC[C@H](N)C(=O)O; Boc = CC(C)(C)OC(=O)*; X2 = c1cncc(C*)c1
Parameter: IC50 (nM)

[P] CCCC[C@H](NC(=O)[C@H](Cc1ccccc1)NC(=O)OC(C)(C)C)C(=O)N[C@@H](CC(C)C)[C@@H](O)CC(=O)N[C@@H](C)C(=O)N[C@@H](CC(C)C)[C@@H](O)CC(=O)OC (Boc-F[Nle][Sta]A[Sta]-OMe)
[Q] COC(=O)C[C@H](O)[C@H](CC(C)C)NC(=O)[C@H](C)NC(=O)C[C@H](O)[C@H](CC(C)C)NC(=O)[C@H](COCc1cccnc1)NC(=O)[C@H](Cc1ccccc1)NC(=O)OC(C)(C)C (Boc-FS(X2)[Sta]A[Sta]-OMe)
Between P and Q , which one shows the larger IC50 value? Respond using the label that marks the chosen record.
Q
(Q: 316 nM, P: 120 nM)
